Tested system: human Bradykinin B1 receptor (Homo sapiens, UniProt P46663)
Sequence (P46663 whole entry): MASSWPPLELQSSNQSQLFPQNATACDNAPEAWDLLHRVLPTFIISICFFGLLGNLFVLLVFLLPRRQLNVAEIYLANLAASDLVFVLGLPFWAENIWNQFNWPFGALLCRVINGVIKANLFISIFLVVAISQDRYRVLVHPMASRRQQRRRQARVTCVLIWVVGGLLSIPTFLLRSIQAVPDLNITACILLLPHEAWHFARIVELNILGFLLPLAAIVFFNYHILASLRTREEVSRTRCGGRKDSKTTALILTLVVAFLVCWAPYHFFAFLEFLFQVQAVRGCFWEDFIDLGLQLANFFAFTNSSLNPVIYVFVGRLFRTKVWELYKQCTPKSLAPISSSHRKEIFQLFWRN
Protocol summary: Calcium flux Assay (FLIPR) with cells expressing human Bradykinin B1 receptor (hB1)
Condition details: absence of 0.1% BSA in assay buffer; CHO-K1 cell line expressing human B1 receptor; agonist Lys-(Des-Arg)-Bradykinin; read-out: hB1 free IC50
Measure name: IC50 (µM)
Express your answer in µM, writing the number without its unit.

Molecule | Tested system | Unit descriptor | IC50
O=C(NC1CCCC1)c1ccc(NC(=O)C2(c3ccc(C(F)(F)F)cc3F)CC2)cc1-c1nnn[nH]1 | human Bradykinin B1 receptor (Homo sapiens, UniProt P46663) | µM | 0.034
COCCOC(=O)c1ccc(NC(=O)C2(c3ccc(C(F)(F)F)cc3F)CC2)cc1-c1nnn[nH]1 | human Bradykinin B1 receptor (Homo sapiens, UniProt P46663) | µM | 0.017
Cc1ccc(NC(=O)c2c(F)cc(NC(=O)C3(c4ccc(C(F)(F)F)cc4F)CC3)cc2-c2nnn[nH]2)nc1 | human Bradykinin B1 receptor (Homo sapiens, UniProt P46663) | µM | 0.051

Then this molecule:
**Query** Name the recorded IC50 for CCC(C)OC(=O)c1ccc(NC(=O)C2(c3ccc(F)c(F)c3)CC2)cc1-c1nnn[nH]1 (racemic) .
**Result** 0.021
